target: Cytochrome P450 1A2 (Homo sapiens); assay: p450-cyp1a2 (AID 410); settings: recombinant CYP1A2, luciferin-ME demethylation, luminescence; series mostly up to 57 µM
Inconclusive results are not listed. Activity calls are given as the source filed them. Calls come from the whole dose curve.
Entry note: the call must match one of class 1 for active, class 0 for inactive

Some solved entries appear below for comparison.
* CS(=O)(=O)N1CCC2(CC1)CN(C(c1ccccc1)c1ccccc1)C2 | class 0
* CC(=O)OCC1=C(C(=O)O)N2C(=O)[C@@H](NC(=O)CSc3ccncc3)[C@@H]2SC1 | class 0
* CCNc1ncc2nc(-c3cccc(C#N)c3)c(=O)n(C)c2n1 | class 1
* O=S(=O)(c1ccccc1)N1CCC[C@@]2(CCN(Cc3nccs3)C2)C1 | class 1
* COc1ccc(NC(=O)N2CCC3(CC2)CCN(C(=O)c2cccn2C)CC3)cc1 | class 0
* COc1ccccc1CN1CCC2(CCNCC2)CC1 | class 0
* COCCn1c(=O)c(-c2cccc(C#N)c2)nc2cnc(Nc3ccccc3)nc21 | class 1
* CS(=O)(=O)Nc1cccc(-c2cncnc2NCc2cccnc2)c1 | class 1
* c1cncc(-c2cc(NCc3cccs3)ncn2)c1 | class 1
* O=C(Nc1ccccc1)N1CCC2(CC1)CCN(C(=O)c1cccc(F)c1)CC2 | class 1

Query: recorded result category for CN(C)c1ncc2nc(-c3cc(F)cc(F)c3)c(=O)n(-c3ccccc3)c2n1 in this test
class 1

Please give the result for COc1ccc(-c2nc3cnc(N(C)C)nc3n(Cc3cccs3)c2=O)cc1 too.
class 1

====

target: Ubiquitin carboxyl-terminal hydrolase 1 (Homo sapiens) (UniProt O94782); test: Inhibitors of USP1/UAF1: Pilot qHTS (AID 504865); conditions: purified USP1/UAF1, Ub-rhodamine cleavage fluorescence; series mostly up to 54.9 µM; note: nearly all actives have a fitted effect of over 35% in size
Sequence (O94782 whole entry, looked up): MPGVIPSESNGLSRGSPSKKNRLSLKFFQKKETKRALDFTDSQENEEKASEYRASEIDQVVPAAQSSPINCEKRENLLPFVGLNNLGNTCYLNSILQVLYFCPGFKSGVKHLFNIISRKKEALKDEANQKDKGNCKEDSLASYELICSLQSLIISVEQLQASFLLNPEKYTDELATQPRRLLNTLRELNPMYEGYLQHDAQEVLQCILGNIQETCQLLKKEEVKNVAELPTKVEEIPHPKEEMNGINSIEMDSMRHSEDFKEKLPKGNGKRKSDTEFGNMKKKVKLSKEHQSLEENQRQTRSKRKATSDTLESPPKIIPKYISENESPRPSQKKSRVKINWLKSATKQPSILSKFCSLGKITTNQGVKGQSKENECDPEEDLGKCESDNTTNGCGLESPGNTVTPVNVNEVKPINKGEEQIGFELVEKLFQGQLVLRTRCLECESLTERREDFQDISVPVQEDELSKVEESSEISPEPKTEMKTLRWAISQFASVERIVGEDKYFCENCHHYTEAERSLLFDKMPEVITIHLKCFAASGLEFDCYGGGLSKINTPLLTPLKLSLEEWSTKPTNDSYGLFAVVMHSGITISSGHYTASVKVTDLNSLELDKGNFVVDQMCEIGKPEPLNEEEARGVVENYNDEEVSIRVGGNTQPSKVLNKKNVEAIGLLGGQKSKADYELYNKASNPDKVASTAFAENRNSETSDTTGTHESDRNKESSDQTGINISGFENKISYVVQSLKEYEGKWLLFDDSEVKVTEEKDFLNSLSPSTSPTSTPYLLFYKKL
Results filed as inconclusive are left out. The source made the active and inactive calls. Calls come from the whole dose curve; as a rule, active = well fitted inhibition curve with a large enough effect; inconclusive = small, poorly fitted or top-dose-only effect; inactive = flat fitted curve, though single readings scatter.
Entry note: the call must match one of active, inactive

Some solved entries appear below for comparison.
- Cc1cccc(CNc2cc(-c3ccccc3C)ncn2)c1: active
- COc1ccccc1-c1ccc2ncnc(N(C)Cc3ccco3)c2c1: inactive
- O=c1c(-c2cccs2)nc2cnc(N3CCOCC3)nc2n1CCc1ccccc1: inactive
- COc1ccc(-n2c(=O)c(-c3cccc(Cl)c3)nc3cncnc32)cc1: inactive
- COCCNc1nc(-c2c(C)noc2C)nc2ccccc12: inactive

Query: recorded result category for c1cncc(-c2ccc3ncnc(NC4CCNCC4)c3c2)c1 in this test
inactive

Please give the result for CC(CCC(=O)O)C1CCC2C3C(O)C[C@@H]4CC(O)CC[C@@]4(C)C3CC[C@@]12C (some centres not stated) too.
inactive

Please give the result for CNc1ncncc1-c1ccccc1C too.
inactive

Please give the result for COc1ncc2nc(-c3ccccc3)c(=O)n(CCC#N)c2n1 too.
inactive

Please give the result for COc1ccc2[nH]cc(CCNc3nc(-c4cccnc4)nc4ccccc34)c2c1 too.
inactive

====

assay: NFAT Signaling Pathway (AID 444); settings: Jurkat NFAT-bla M1, carbachol, beta-lactamase ratio, 5 h; at 7.69 µM (top of the series) unless noted;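 note: carbachol stimulus at about its EC50 of 1 µM final; % is set by controls: 0 for no effect and ±100 for the full control effect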
Inconclusive results are not listed. Activity calls are given as the source filed them. The call rests on the fitted dose curve; in most records, active means well fitted curve in either direction with a large enough effect (not every such curve was filed as active); inconclusive means small, poorly fitted or top-dose-only effect, or another doubt; inactive means flat fitted curve, though single readings scatter.
readoutName: activity change, negative = inhibition

Some solved entries appear below for comparison.
* Cn1cccc1C(=O)N1CCC2(CC1)CN(C(=O)Nc1cccc(F)c1)C2 | 6.99% (inactive)
* CN(C)C(=O)c1ccc(-c2cncnc2N(C)Cc2ccco2)cc1 | -12.8% (inactive)

Next, consider the following molecule.
Param item = O=C(c1cnccn1)N1CCC2(CCCN(c3ncccn3)C2)CC1 ; retrieve measured activity change, negative = inhibition.
13.2% (inactive)

====

target: Glucocorticoid receptor (Homo sapiens); experiment: GR-GFP Redistribution (AID 450); conditions: U2OS GR-GFP nuclear translocation, laser cytometry, 2 h; note: potency is the fitted concentration of half-maximal effect
Active and inactive are the calls of the source.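 How the source made its calls: active means compounds whose dose series gives a full or clear partial fitted curve of increased nuclear translocation; inconclusive means weak partial curve or effect only at the top dose; inactive means no dose-dependent translocation response.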
Entry note: the call must match one of active, inactive

Some solved entries appear below for comparison.
- COc1ccc(-c2nc3cnc(N(C)C)nc3n(C[C@H]3CCCO3)c2=O)cc1: inactive
- COc1ccc(Oc2ncc3ncc(=O)n(Cc4cccs4)c3n2)cc1: inactive
- CNc1nc(-c2ccc(C(=O)N(C)C)cc2)nc2ccccc12: inactive

Query: recorded result category for CCNc1ncc2nc(-c3cccs3)c(=O)n(Cc3cccs3)c2n1 in this test
inactive

Please give the result for CS(=O)(=O)Nc1cccc(-c2nc(NCc3cccs3)c3ccccc3n2)c1 too.
inactive

Please give the result for CO[C@H]1C[C@@H](O[C@@H]2[C@H](C)[C@H](O[C@@H]3O[C@@H](C)C[C@@H](N(C)C)[C@@H]3O)[C@H](C)C[C@]3(CO3)C(=O)[C@H](C)[C@H](O)[C@H](C)[C@H](C)OC(=O)[C@@H]2C)O[C@@H](C)[C@H]1O too.
inactive

Please give the result for CCNc1ncc2nc(-c3ccc(Cl)cc3)c(=O)n(-c3ccccc3)c2n1 too.
inactive

Please give the result for C[C@@]12CCC(=O)C=C1CC[C@H]1[C@H]3CC[C@](O)(C(=O)CO)[C@]3(C)CC(=O)[C@@H]12 too.
active

Please give the result for COc1cccc(Cn2c(=O)c(-c3ccc(Cl)cc3)nc3cncnc32)c1 too.
inactive

Please give the result for Cn1cc(-c2nc3cnc(Oc4cccc(Cl)c4)nc3n(C3CC3)c2=O)c2ccccc21 too.
inactive

Please give the result for COCCn1c(=O)c(-c2ccc(OC)cc2)nc2cnc(Nc3cccc(OC)c3)nc21 too.
inactive

Please give the result for CCNc1ncc2ncc(=O)n(C)c2n1 too.
inactive

Please give the result for COc1cccc(Cn2c(=O)c(-c3cccs3)nc3cnc(OCc4ccccc4)nc32)c1 too.
inactive

Please give the result for CN(C)Cc1ccccc1-c1cc(N(C)C)ncn1 too.
inactive

Please give the result for CS(=O)(=O)Nc1cccc(-c2ccc3ncnc(NCc4cccnc4)c3c2)c1 too.
inactive

Please give the result for CCNc1ncc2nc(-c3ccc(F)cc3)c(=O)n(CCc3ccccc3)c2n1 too.
inactive

Please give the result for CCNc1ncc2nc(-c3cn(C)c4ccccc34)c(=O)n(Cc3cccs3)c2n1 too.
inactive

Please give the result for Cc1nc2cnc(N(C)C)nc2n(C)c1=O too.
inactive

Please give the result for COc1ccc2[nH]cc(CCNc3cc(-c4ccc5c(c4)OCO5)ncn3)c2c1 too.
inactive

Please give the result for COc1ccc(CNc2ncncc2-c2ccccc2Cl)c(OC)c1 too.
inactive

====

target: Cytochrome P450 2D6 (Homo sapiens); assay: qHTS Assay for Inhibitors and Substrates of Cytochrome P450 2D6 (AID 891); conditions: recombinant CYP2D6, luciferin-ME EGE luminescence; series mostly up to 57.1 µM; note: nearly all actives have a fitted effect of over 60% in size; note: potency is the fitted concentration of half-maximal effect
Records with an inconclusive call do not appear. Activity calls are given as the source filed them. Calls come from the whole dose curve; as a rule, active = well fitted inhibition curve with a large enough effect; inconclusive = small, poorly fitted or top-dose-only effect; inactive = no such curve, though single readings can be large or run the other way.
readoutName: Potency

Some solved entries appear below for comparison.
- COc1c2ccoc2nc2c(OC)c(OC[C@H](O)C(C)(C)O)ccc12: inactive
- O=C(c1ccncc1)N1CCC2(CCCN(C(c3ccccc3)c3ccccc3)C2)CC1: 0.0398 µM (active)
- C[C@@]12CCC(=O)C=C1CC[C@@H]1[C@@H]2[C@H](O)C[C@]2(C)[C@@H]1CC[C@]2(O)C(=O)CO: inactive
- CN1CCCC2(CCN(C(=O)c3cccc(F)c3)CC2)C1: inactive
- O=C(c1cnccn1)N1CCC2(CC1)CN(C(c1ccccc1)c1ccccc1)C2: 6.31 µM (active)

Param item = FC(F)(F)c1cc(CN2CC[C@@]3(CCCNC3)C2)cc(C(F)(F)F)c1 ; retrieve measured Potency.
inactive

Please give the result for c1cncc(-c2nc(NCc3cccs3)c3ccccc3n2)c1 too.
6.31 µM (active)

Please give the result for N#Cc1cccc(NC(=O)N2CC[C@@]3(CCCN(C(=O)c4cc(C(F)(F)F)cc(C(F)(F)F)c4)C3)C2)c1 too.
inactive

Please give the result for O=C(c1ccco1)N1CCC2(CC1)CCN(C(c1ccccc1)c1ccccc1)CC2 too.
5.01 µM (active)

Please give the result for COc1ccccc1CN1CCCC2(CCN(C(=O)c3cccn3C)CC2)C1 too.
3.16 µM (active)

====

experiment: NFAT Signaling Pathway (AID 444); conditions: Jurkat NFAT-bla M1, carbachol, beta-lactamase ratio, 5 h; at 7.69 µM (top of the series) unless noted;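 note: carbachol stimulus at about its EC50 of 1 µM final; % is set by controls: 0 for no effect and ±100 for the full control effect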
Records with an inconclusive call do not appear. Active and inactive are the calls of the source. The call rests on the fitted dose curve; in most records, active means well fitted curve in either direction with a large enough effect (not every such curve was filed as active); inconclusive means small, poorly fitted or top-dose-only effect, or another doubt; inactive means flat fitted curve, though single readings scatter.
Entry note: the call must match one of 1.0 = active, 0.0 = inactive

* COCC(=O)N1CCC2(CC1)CN(c1cccc(-c3ccccc3)c1)C2 | 0.0

Query: recorded result category for COc1cccc(Cn2c(=O)c(-c3cccs3)nc3cnc(N4CCN(C)CC4)nc32)c1 in this test
1.0

Please give the result for COc1ccc(-n2c(=O)c(C)nc3cnc(N4CCOCC4)nc32)cc1 too.
0.0

Please give the result for COc1ccc2[nH]cc(CCNc3ncncc3-c3cccnc3)c2c1 too.
0.0

Please give the result for Cc1cccc(CNc2nc(-c3cccc(NS(C)(=O)=O)c3)nc3ccccc23)c1 too.
0.0

====

tested on: Dd2; assay: qHTS profiling for inhibitors of Plasmodium falciparum proliferation (AID 504749);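 note: 0% = DMSO vehicle and full inhibition = artemisinin control; nearly all actives have a fitted effect of over 60% in size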; settings: P. falciparum in erythrocytes, SYBR Green DNA, 72 h; series mostly up to 12.8 µM
Records with an inconclusive call do not appear. Activity calls are given as the source filed them. Calls come from the whole dose curve; as a rule, active = well fitted inhibition curve with a large enough effect; inconclusive = small, poorly fitted or top-dose-only effect; inactive = flat fitted curve, though single readings scatter.
Entry note: the call must match one of active, inactive

Some solved entries appear below for comparison.
* NC(=O)OC[C@H](O)COc1ccc(Cl)cc1 | inactive
* CCn1cc(C(=O)O)c(=O)c2cc(F)c(N3CCN[C@@H](C)C3)c(F)c21 | inactive
* C[C@@H]1COc2c(N3CCN(C)CC3)c(F)cc3c(=O)c(C(=O)O)cn1c23 | inactive
* CC(C)NC[C@H](O)c1cc(O)cc(O)c1 | inactive
* CC(=O)N(CC(O)CN(C(C)=O)c1c(I)c(C(=O)NC[C@@H](O)CO)c(I)c(C(=O)NC[C@@H](O)CO)c1I)c1c(I)c(C(=O)NC[C@@H](O)CO)c(I)c(C(=O)NC[C@@H](O)CO)c1I | inactive

Query: recorded result category for O=C(O)/C=C\c1ccc(Cn2ccnc2)cc1 in this test
inactive

Please give the result for C/C=C\C(=O)N(CC)c1ccccc1C too.
inactive

Please give the result for C[C@@H](CCc1ccccc1)NC[C@H](O)c1ccc(O)c(C(N)=O)c1 too.
inactive

Please give the result for O=C(Cc1cccs1)NC1C(=O)N2C(C(=O)[O-])=C(C[n+]3ccccc3)CSC12 (stereo unspecified) too.
inactive

Please give the result for CN[C@@H]1[C@H](O[C@@H]2O[C@H](CO)[C@@H](N)[C@H](O)[C@@H]2O)O[C@H]2C[C@@H](N)[C@@H](O[C@H]3[C@@H](O)[C@H](O)[C@H](N)C[C@@H]3N)O[C@H]2[C@H]1O too.
inactive
